All figures here come from PubChem BioAssay AID1159580.

assay: chemical genetic growth profiling, strain panel (AID 1159580);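 note: tested at 20 µM; growth read once vehicle control cultures reached saturation at 30 °C; 1 = growth at the plate median or of vehicle wells; lower values mean less growth of the strain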; details: S. cerevisiae deletion strains, growth OD, locus YPR167C, strain met16
About 2,000 (36%) of roughly 5,500 compounds were called active. Not shown: some 18% with an inconclusive outcome. Cut-off read from the data, not from the text of the source: active = normalized growth mostly below about 0.91 (no sharp cut-off); inconclusive = no clear call, values can overlap the other calls; inactive = mostly above about 0.92. Some of the results follow.
Outcomes: T (active), F (inactive)

>>> label_class("Cc1ccc(S(=O)(=O)NC(=O)NN2CC3CCCC3C2)cc1 (centres undefined)")
"F"
>>> label_class("C[C@@H]1CC[C@H]2[C@@H](C)C(O)O[C@@H]3O[C@@]4(C)CC[C@@H]1[C@]32OO4 (some centres undefined)")
"T"
>>> label_class("CC(=O)OC1CC(OC(C)=O)C2(C)C(CC(OC(C)=O)C3(C)C4=CC(=O)OC(=O)C4(C)CCC32)C1(C)C (centres undefined)")
"F"
>>> label_class("COc1cccc(OC)c1OCCNCC1COc2ccccc2O1 (centres undefined)")
"F"
>>> label_class("C[C@@H]1C(=O)O[C@H]2[C@H]1CC[C@@]1(C)C=CC(=O)[C@@]3(C)O[C@@]213")
"F"
>>> label_class("COc1cc(N)c(Cl)cc1C(=O)NC1CCN(Cc2ccccc2)CC1")
"F"
>>> label_class("CC(=O)NCc1c(I)c(NC(C)=O)c(I)c(C(=O)O)c1I")
"F"
>>> label_class("Nc1ccc(S(=O)(=O)c2ccc(N)cc2)cc1")
"F"
>>> label_class("O=C1c2c(O)cccc2Cc2cccc(O)c21")
"F"
>>> label_class("NC12CC3CC(CC(C3)C1)C2")
"F"
>>> label_class("O=C1C(O)=C(O)C(=O)C(O)=C1O")
"F"
>>> label_class("CC(=O)O[C@H]1CC[C@@]2(C)C(CC[C@]3(C)C2CC=C2C4CC(C)(C)CC[C@]4(C)CC[C@]23C)C1(C)C (some centres undefined)")
"F"
>>> label_class("CC(=O)O[C@@H]1CC[C@@]2(C)C(CC[C@]3(C)C2CC=C2C4CC(C)(C)CC[C@]4(C(=O)O)CC[C@]23C)C1(C)C (some centres undefined)")
"F"
>>> label_class("COc1ccc2c3c([nH]c2c1)C(C)=NCC3")
"F"
>>> label_class("C#C[C@]1(O)CCC2C3CCC4=CC(=O)CC[C@@H]4C3CC[C@@]21C (some centres undefined)")
"F"
>>> label_class("CC1(C)CC[C@]2(C(=O)O)CC[C@]3(C)C(=CCC4[C@@]5(C)CC[C@H](O)[C@@](C)(CO)C5CC[C@]43C)C2C1 (some centres undefined)")
"F"
>>> label_class("C[C@@H]1OC(O[C@H]2C(O[C@H]3CC[C@@]4(C)C(CC[C@]5(C)C4CC=C4C6CC(C)(C)CC[C@]6(C(=O)O)CC[C@]45C)[C@]3(C)CO)OC[C@H](O)[C@@H]2O)[C@H](O)[C@H](O)[C@H]1O (some centres undefined)")
"T"
>>> label_class("NC(N)=N/N=C/c1c(Cl)cccc1Cl")
"F"
>>> label_class("CC(=O)O[C@H]1CC[C@@]2(C)C(CC[C@]3(C)C2C(=O)C=C2C4[C@@H](C)[C@H](C)CC[C@]4(C(=O)O)CC[C@]23C)C1(C)C (some centres undefined)")
"F"

----------
test: chemical genetic growth profiling, strain panel (AID 1159580);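 note: tested at 20 µM; growth read once vehicle control cultures reached saturation at 30 °C; 1 = growth at the plate median or of vehicle wells; lower values mean less growth of the strain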; conditions: S. cerevisiae deletion strains, growth OD, locus YNL071W, strain lat1, stronger effect = lower value
The campaign covered roughly 5,500 compounds. About 2,000 (36%) were called active. About 18% were inconclusive and are not listed. The list shows a part of the results.
Decide using normalized growth alone. Strictly below 1: yes. Equal to or above 1: no.

>>> label_class("CCN1C[C@]2(OC(=O)c3ccccc3NC(C)=O)CCC(OC)[C@]34C1[C@H](CC23)[C@@]1(O)CC(OC)[C@H]2CC4C1(O)[C@H]2OC (some centres not stated)")
"yes"
>>> label_class("CCOP(=S)(OCC)Oc1nc(Cl)c(Cl)cc1Cl")
"yes"
>>> label_class("CCCCCCCCCCCC[C@H](C(=O)O)[C@@H](C)C(=O)O")
"yes"
>>> label_class("COC(=O)Nc1nc2ccc(C(=O)c3ccccc3)cc2[nH]1")
"yes"
>>> label_class("CNCc1ccccc1")
"no"

----------
assay: chemical genetic growth profiling, strain panel (AID 1159580);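 note: tested at 20 µM; growth read once vehicle control cultures reached saturation at 30 °C; 1 = growth at the plate median or of vehicle wells; lower values mean less growth of the strain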; conditions: S. cerevisiae deletion strains, growth OD, locus YDR069C, strain doa4, stronger effect = lower value
Out of some 5,500 compounds screened, about 2,000 (36%) were called active. Roughly 18% stayed inconclusive and do not appear here. This is one part of the list. Where a SMILES comes first, the peptide text is derived from it. Bridges are numbered along the chain shown (N, C = ends). [ ]: non-standard residue; d: D form. The star is where a group is joined. ξ: configuration not given here. ξDab(CH2SO3H) = NC(CCNCS(=O)(=O)O)C(=O)O; Heptanoyl(6-Me) = CC(C)CCCCC(=O)*; Dab = NCC[CH](N)C(=O)O
readout type: normalized growth

>>> observed("Cc1ccc(S(=O)(=O)NC(=O)NN2CC3CCCC3C2)cc1 (configuration not stated)")
0.99
>>> observed("CC(=O)O[C@@H]1CC[C@@]2(C)C(CC[C@]3(C)C2CC=C2C4CC(C)(C)CC[C@]4(C(=O)O)CC[C@]23C)C1(C)C (some centres not stated)")
0.84
>>> observed("C#C[C@]1(O)CCC2C3CCC4=C(CCC(=O)C4)C3CC[C@@]21C (some centres not stated)")
0.97
>>> observed("Cc1cc(O)cc(O)c1C(=O)O")
1.03
>>> observed("CC(=O)O[C@H]1CC[C@@]2(C)C(CC[C@]3(C)C2CC=C2C4CC(C)(C)CC[C@]4(C)CC[C@]23C)C1(C)C (some centres not stated)")
0.971
>>> observed("CCCCCCCCCCCCCCC(C(=O)O)C(O)(CC(=O)OC)C(=O)O (configuration not stated)")
1.07
>>> observed("CCCCCCCCCCCC[C@H](C(=O)O)[C@@H](C)C(=O)O")
0.999
>>> observed("C[C@@H]1OC(O[C@H]2C(O[C@H]3CC[C@@]4(C)C(CC[C@]5(C)C4CC=C4C6CC(C)(C)CC[C@]6(C(=O)O)CC[C@]45C)[C@]3(C)CO)OC[C@H](O)[C@@H]2O)[C@H](O)[C@H](O)[C@H]1O (some centres not stated)")
0.0606
>>> observed("CNCc1ccccc1")
1.01
>>> observed("CCOC(=O)OC(C)OC(=O)C1N2C(=O)C(NC(=O)[C@H](N)c3ccccc3)C2SC1(C)C (some centres not stated)")
0.993
>>> observed("C#C[C@]1(OC(C)=O)CCC2C3CCC4=C/C(=N\\O)CCC4C3CC[C@@]21CC (some centres not stated)")
0.367
>>> observed("O=c1ccc2ccc(O)cc2o1")
0.993
>>> observed("CCC(C)C1NC(=O)C(CCNCS(=O)(=O)O)NC(=O)C(NC(=O)C(CCNCS(=O)(=O)O)NC(=O)C(NC(=O)C(CCNCS(=O)(=O)O)NC(=O)CCCCC(C)C)C(C)O)CCNC(=O)C(C(C)O)NC(=O)C(CCNCS(=O)(=O)O)NC(=O)C(CCNCS(=O)(=O)O)NC(=O)C(C(C)CC)NC1=O (configuration not stated) ({Heptanoyl(6-Me)}-[ξDab(CH2SO3H)]T[ξDab(CH2SO3H)][Dab][ξDab(CH2SO3H)]II[ξDab(CH2SO3H)][ξDab(CH2SO3H)]T; lactam 4-C; configuration not given here)")
0.961
>>> observed("C[C@@H]1CC[C@H]2[C@@H](C)C(O)O[C@@H]3O[C@@]4(C)CC[C@@H]1[C@]32OO4 (some centres not stated)")
0.386
>>> observed("Cc1cc(O)ccc1Cl")
1.03
>>> observed("O=C1c2c(O)cccc2Cc2cccc(O)c21")
0.946
>>> observed("NNC(=O)c1ccncc1")
1.02

----------
assay: chemical genetic growth profiling, strain panel (AID 1159580);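 note: tested at 20 µM; growth read once vehicle control cultures reached saturation at 30 °C; 1 = growth at the plate median or of vehicle wells; lower values mean less growth of the strain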; conditions: S. cerevisiae deletion strains, growth OD, locus YJL187C, strain SWE1
The whole screen tested about 5,500 compounds, of which about 2,000 (36%) were called active. Inconclusive results (about 18%) are left out. Rule as the data show it: active = normalized growth mostly below about 0.91 (no sharp cut-off); inconclusive = no clear call, values can overlap the other calls; inactive = mostly above about 0.92. Some of the results follow.
Outcomes: active, inactive

>>> label_class("CC(CC(=O)C1OC1(C)C)C1C(=O)CC2(C)C3=CCC4C(C)(C)C(OC5OCC(O)C(O)C5O)CCC45CC35C(O)CC12C (configuration not stated)")
"inactive"
>>> label_class("Cc1ccc(S(=O)(=O)NC(=O)NN2CC3CCCC3C2)cc1 (configuration not stated)")
"inactive"
>>> label_class("FC(F)(F)c1cccc(CSc2n[nH]c(=S)s2)c1")
"active"
>>> label_class("C/C=C(/C)C(=O)O[C@@H]1[C@H](OC(C)=O)[C@@]2(CO)C(CC1(C)C)C1=CCC3[C@@]4(C)CC[C@H](O[C@@H]5O[C@H](C(=O)O)[C@@H](O[C@@H]6O[C@H](CO)[C@@H](O)[C@H](O)[C@H]6O)[C@H](O)[C@H]5O[C@@H]5O[C@H](CO)[C@@H](O)[C@H](O)[C@H]5O)[C@](C)(CO)C4CC[C@@]3(C)[C@]1(C)C[C@H]2O (some centres not stated)")
"inactive"
>>> label_class("CC1(C)CCC2(C(=O)O)CCC3(C)C(=CCC4C5(C)CCC(O)C(C)(C)C5C(O)CC43C)C2C1 (configuration not stated)")
"inactive"
>>> label_class("O=C(CNC(=O)c1ccc(Cl)cc1)NO")
"inactive"
>>> label_class("Cc1noc(C)c1-c1nc(-c2cc(C(F)(F)F)cc(C(F)(F)F)c2)no1")
"inactive"
